Assay: collision cross section of modified peptide (TIMS, N2, iRT-aligned); higher = larger / more extended gas-phase ion
Conditions: charge state: 3; modification: Succinyl
Recorded collision cross section values for a group of sequences are listed next.
measure: collision cross section (Å²)

>>> endpointvalue("SSFAYKDQNENR [_SSFAYK(Succinyl)DQNENR_]")
453.96
>>> endpointvalue("YEQEHAAIQDKLFQVAK [_YEQEHAAIQDK(Succinyl)LFQVAK_]")
518.31
>>> endpointvalue("VETTVTSLKTK [_VETTVTSLK(Succinyl)TK_]")
451.06
>>> endpointvalue("VNVEAPDVNLEGLGGKLK [_VNVEAPDVNLEGLGGK(Succinyl)LK_]")
548.55
>>> endpointvalue("SITHSTVGSKGEK [_SITHSTVGSK(Succinyl)GEK_]")
442.37
>>> endpointvalue("DASTLQSQKAEGTGDAK [_DASTLQSQK(Succinyl)AEGTGDAK_]")
509.05
>>> endpointvalue("SLGEPAAGEGSAKR [_SLGEPAAGEGSAK(Succinyl)R_]")
476.57
>>> endpointvalue("ITLSKHQNVQLPR [_ITLSK(Succinyl)HQNVQLPR_]")
485.89
